Would you mind telling me the reported MIC of each entry?
System: Enterobacter aerogenes ATCC 29751
METHOD_SUMMARY: Antibacterial activity MIC, two-fold agar dilution
Type: cell-based
RUN_PARAMETERS: Klebsiella aerogenes, ATCC29751; Enterobacter aerogenes ATCC 29751; Muller-Hinton agar, 37° C., 20 hours; read-out: Antibacterial Activity MIC
Numbers only, in µg/mL.

Please review the following examples before continuing.
1) CC[n+]1c(SCC2=C(C(=O)[O-])N3C(=O)[C@@H](NC(=O)/C(=N\OC(C)C(=O)O)c4csc(N)n4)[C@H]3SC2)cc(N)nc1N (stereo partly drawn)	1
2) C[n+]1c(N)cc(SCC2=C(C(=O)[O-])N3C(=O)[C@@H](NC(=O)/C(=N\OC(C)(C)C(=O)O)c4csc(N)n4)[C@H]3SC2)nc1N	2

// switching to the query compound
Query block: // MIC lookup, key: CO/N=C(\C(=O)N[C@@H]1C(=O)N2C(C(=O)[O-])=C(CSc3cc(N)nc(N)[n+]3C)CS[C@H]12)c1csc(N)n1
Result block: 0.5
